- assayedTarget: Adrenergic receptor alpha-1 (Rattus norvegicus, UniProt P15823+P23944+P43140)
- assayExplanation: In vitro binding affinity was measured as the inhibition of [3H]WB-4101 binding to alpha-1 adrenergic receptor of rat cortical membranes
- Format: cell membranes, Membrane
Mark yes only when Ki stays strictly below 300 nM. Values equal to the cut-off are no.

CN1CCN(c2nc(Cl)c(Cl)c(NC3CCCC3)n2)CC1; yes
CNc1nc(N2CCN(C)CC2)nc(Cl)c1SC; no
CN1CCN(c2nc(N)c(Br)c(Cl)n2)CC1; no

Decide: Ki of COc1c(Cl)nc(N2CCN(C)CC2)nc1NC(C)C strictly below 300 nM?
no

Decide: Ki of CC(C)Nc1nc(N2CCNCC2)nc(Cl)c1Br strictly below 300 nM?
yes

Decide: Ki of CC(COc1ccccc1)N(CCCl)Cc1ccccc1 (stereo unspecified) [PHENOXYBENZAMINE] strictly below 300 nM?
yes
